Entry source: patent EP4745145A1

// reported Purity per item
- assayComment: Influencing factor experiment (stability under high temperature, high humidity, light)
- Assay type: physicochemical
- assayConditions: Light (7000 lux, open), 7d
Structures can show the parent of a compound that is named as a salt.

compound | unitsLabel | Purity
COc1ccc(Cl)cc1-c1cc(C)ncc1C(=O)Nc1nc2ncc(-c3ccc(C#N)cc3)nc2s1 [Crystal form B] | % | 98.84
COc1ccc(Cl)cc1-c1cc(C)ncc1C(=O)Nc1nc2ncc(-c3ccc(C#N)cc3)nc2s1 [Crystal form C] | % | 98.29
COc1ccc(Cl)cc1-c1cc(C)ncc1C(=O)Nc1nc2ncc(-c3ccc(C#N)cc3)nc2s1 [Crystal form A] | % | 99.11
COc1ccc(Cl)cc1-c1cc(C)ncc1C(=O)Nc1nc2ncc(-c3ccc(C#N)cc3)nc2s1 [Crystal form E] | % | 99.24
COc1ccc(Cl)cc1-c1cc(C)ncc1C(=O)Nc1nc2ncc(-c3ccc(C#N)cc3)nc2s1 [Amorphous form of sodium salt of compound of formula I] | % | 97.57
